System name: HLA-A*24:02 (Homo sapiens, UniProt P04439, D101N/D140Y/D185E/E176V/E190D/F33S/G103R/G107R/I119L/I121M/I306V/K335N/L105A/L180Q/L300P/N151K/N90K/Q86E/Q94H/R106L/R138H/R89G/T104I/T345S/V100E/W191G/Y123F)
Protocol text: MHC binding assay, UV-ligand exchange with β2m ELISA, HLA-A*24:02
Condition context: peptide exchange yield

# Substance, Peptide exchange
rows = [
    ("70 (LYSDIGHLL; listed as Homo sapiens) [compound 70]", "“+++” (>50 = +++)"),
    ("63 (IYFSNTHFF; listed as Homo sapiens) [compound 63]", "“+++” (>50 = +++)"),
    ("69 (EYNTIKDKF; listed as Homo sapiens) [compound 69]", "“+++” (>50 = +++)"),
    ("58 (KYLADLPTL; listed as Homo sapiens) [compound 58]", "“++++” (>75% = ++++)"),
    ("68 (LYQDRFDYL; listed as Homo sapiens) [compound 68]", "“++++” (>75% = ++++)"),
]
